assayed-system: Cellular tumor antigen p53 (Homo sapiens) (UniProt P04637)
Sequence (P04637 whole entry, looked up): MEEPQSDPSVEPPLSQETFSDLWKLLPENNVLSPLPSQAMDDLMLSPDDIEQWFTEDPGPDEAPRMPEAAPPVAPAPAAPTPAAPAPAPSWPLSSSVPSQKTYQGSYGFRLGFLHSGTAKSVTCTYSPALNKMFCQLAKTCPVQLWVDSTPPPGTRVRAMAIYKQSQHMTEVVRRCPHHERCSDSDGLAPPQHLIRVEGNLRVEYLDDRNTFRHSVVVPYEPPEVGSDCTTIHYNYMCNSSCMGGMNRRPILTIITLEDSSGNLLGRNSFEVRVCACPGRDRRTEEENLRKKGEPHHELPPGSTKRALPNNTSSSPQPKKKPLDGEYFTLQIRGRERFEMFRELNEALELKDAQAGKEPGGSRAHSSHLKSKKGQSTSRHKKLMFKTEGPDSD
run-description: TOX21_p53_BLA_p5_ratio: Tox21 HCT-116 p53 Agonism Beta-lactamase Assay, Ratio, Phase 5 (AID 2283599)
Inconclusive results are not listed. The source made the active and inactive calls. How the source made its calls: active means hit-call score of the fitted dose curve at least 0.9, where 1 is the maximum; inconclusive means response in the unintended direction; inactive means score below 0.9.
Mark one answer only. Choices: 1 = active, -1 = inactive

Consider the following illustrative entries.
Ask: Kindly provide the recorded test outcome for the following compound: CC(=O)Oc1ccc(C2(c3ccc(OC(C)=O)cc3)Oc3ccccc3NC2=O)cc1
Result: 1

Ask: Kindly provide the recorded test outcome for the following compound: C=CC(C)(O)CC/C=C(\C)CCC=C(C)C (configuration not stated)
Result: -1

Ask: Kindly provide the recorded test outcome for the following compound: O=C(O)COc1ccc2ccccc2c1
Result: -1

Ask: Kindly provide the recorded test outcome for the following compound: CCCCCCCC/C=C\CCCCCCCCOCCO
Result: 1

Ask: Kindly provide the recorded test outcome for the following compound: Cc1[nH]cnc1CN1CCc2c(c3ccccc3n2C)C1=O
Result: -1

Ask: Kindly provide the recorded test outcome for the following compound: CCCCN=C(N)N=C(N)N
Result: -1

Ask: Kindly provide the recorded test outcome for the following compound: C=CCSCC1Nc2cc(Cl)c(S(N)(=O)=O)cc2S(=O)(=O)N1 (configuration not stated)
Result: 1

Ask: Kindly provide the recorded test outcome for the following compound: Cc1ccc(O)c(C(=O)c2ccccc2)c1
Result: -1

// switching to the query compound
Ask: Kindly provide the recorded test outcome for the following compound: CC(C)(C)C(=O)OCOC(=O)[C@@H]1N2C(=O)[C@@H](N=CN3CCCCCC3)[C@H]2SC1(C)C
Result: -1
